# Test system: MDA-MB-435 melanoma
# assay_method_text: NCI-60 one-dose screen, 48 h
# test_context: 10 µM unless noted
This is part of a sample that, as a whole, favours compounds with a hit. Of some 83,000 tested, about 20% had one in any assay. Activity calls are given as the source filed them. How the source made its calls: active means growth percent below 10; inactive means the rest.
Return exactly one item of Yes for active, No for inactive

compound	classification
O=c1oc2ccc(I)cc2c(=O)n1-c1ccc(I)cc1F	Yes

What did this assay record as the result for "O=C(O)CCC(=O)c1ccc(C2CCCCCC2)cc1" ?
No

What did this assay record as the result for "O=c1oc2ccc(Br)cc2c(=O)n1-c1ccc(Cl)cc1F" ?
Yes

What did this assay record as the result for "COC(=O)/C(CCC=C(C)C)=C1\[C@@H](OC(C)=O)C[C@@]2(C)[C@H]1C[C@@H](O)[C@H]1[C@@]3(C)CC[C@H](NC(=O)c4cnccn4)[C@@H](C)[C@@H]3CC[C@@]12C" ?
No

What did this assay record as the result for "O=c1c2cc(F)ccc2sc2c(NCCN3CCCC3)nc3ccccc3c12" ?
No

What did this assay record as the result for "O=C(Nc1ccc(Cl)cc1)N1CCN(c2ccc3nncn3n2)CC1" ?
Yes

What did this assay record as the result for "COc1ccc2oc(=O)cc(Cn3cc(Cn4cnc5c4c(=O)n(C)c(=O)n5C)nn3)c2c1" ?
No

What did this assay record as the result for "CCOC(=O)c1sc(-c2ccc(OS(=O)(=O)c3ccccc3[N+](=O)[O-])c(C=O)c2)nc1C" ?
No

What did this assay record as the result for COc1ccc(/C=c2\sc3n(c2=O)NC2C(N=3)N(C)C(=O)N2C)cc1 (centres undefined) ?
No

* * *

# System: COLO 205 colon
# assay_method_text: NCI-60 one-dose screen, 48 h (100 = growth as untreated, 0 = no growth, -100 = all killed)
# test_context: 10 µM unless noted
This is part of a sample that, as a whole, favours compounds with a hit. Of some 83,000 tested, about 20% had one in any assay.
The entries below are paired with their reported growth.
// return numeric value only (unit: %, not printed)

molecule	target_system	units	observed_value
Clc1ncccc1Nc1ccc2nnc(-c3ccncc3)n2n1	COLO 205 colon	%	109
COc1cc2nc(-c3cccc4cccnc34)nc(NC3CCN(Cc4ccccc4)CC3)c2cc1OC	COLO 205 colon	%	-75.5
COc1ccc(/C=c2\sc3n(c2=O)NC2C(N=3)N(C)C(=O)N2C)cc1 (stereo unspecified)	COLO 205 colon	%	102
Nc1ccc(-c2nn3c(CCC(=O)c4nc5ncccc5[nH]4)nnc3s2)c(O)c1	COLO 205 colon	%	99.6

For the molecule shown here, CC1CCCCN1CCCNC(=O)c1ccc2c(c1)sc1nc(-c3ccc(F)cc3)cn12 (stereo unspecified) , give the reported growth.
98

For the molecule shown here, "O=c1c(-c2nc3ccccc3[nH]2)cc2ccccc2n1Cc1cn(Cc2ccc(N3CCOCC3)cc2)nn1" , give the reported growth.
83.7

For the molecule shown here, C=C(C)CCC(C)N1CCC(N2CCC(C(=O)NCCc3ccccc3)CC2)CC1 (stereo unspecified) , give the reported growth.
25.4

For the molecule shown here, "COc1ccc(OC)c(NC(=O)/C(C#N)=C/c2ccco2)c1" , give the reported growth.
92.8

* * *

# System: NCI/ADR-RES ovarian
# assay_method_text: NCI-60 one-dose screen, 48 h (100 = growth as untreated, 0 = no growth, -100 = all killed)
# test_context: 10 µM unless noted
About 83,000 compounds went through this panel and 20% of them were active in at least one assay; those are over-represented in the sample as a whole. The source made the active and inactive calls. Rule for the calls: active = growth percent below 10; inactive = the rest.
experimental_readout: growth

compound	experimental_readout	observed_value
Cc1ccc(S(=O)c2ccc([N+](=O)[O-])c3nonc23)cc1 (stereo unspecified)	growth	114% (inactive)
Cc1cccc2c(=O)c3c(sc12)c(N1CCNCC1)nc1ccccc13	growth	83.1% (inactive)
S=C1NC2(c3ccccc3)CCC(=S)N2c2ccccc21 (stereo unspecified)	growth	109% (inactive)

For the compound shown here, COc1cc(C(C)n2cc(-c3ccccc3)nn2)ccc1OC1CCCCC1 (stereo unspecified) , give the reported growth.
49.3% (inactive)

For the compound shown here, CC(=Nc1ccccc1)C1=C(O)C(Cc2ccc(F)cc2)NC1=O (stereo unspecified) , give the reported growth.
10.6% (inactive)

For the compound shown here, "CCOC(=O)c1cc2c(n1Cc1cccc(OC)c1)-c1oncc1CCC2" , give the reported growth.
12.2% (inactive)
